Listing of recorded IC50 by entry.
# System: HCT-116 colon carcinoma
# PROTOCOL SUMMARY: Cell Proliferation Inhibition Assay (14C-thymidine incorporation), HCT-116;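 note: proliferation measured as methyl 14C-thymidine uptake into new DNA, counted in 96-well scintillating microplates, compared with DMSO-only control wells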
# Type: cell-based
# PROTOCOL CONDITIONS: Homo sapiens, HCT-116, HCT-116 cells
Just the number in µM, nothing appended.

The cases that follow already have their IC50 on record.
[
  {
    "SMILES NOTATION": "CCNCc1cncc(-c2cnc3[nH]nc(-c4nc5cc(F)c(F)cc5[nH]4)c3c2)c1",
    "VALUE UNIT": "µM",
    "READOUT NUMBER": 0.0947
  },
  {
    "SMILES NOTATION": "O=C(NC1CCCC1)c1cccc2[nH]c(-c3n[nH]c4ncc(-c5cncc6ccccc56)cc34)nc12",
    "VALUE UNIT": "µM",
    "READOUT NUMBER": 0.0787
  },
  {
    "SMILES NOTATION": "COCCNCc1cncc(-c2cnc3[nH]nc(-c4nc5c(COC)cccc5[nH]4)c3c2)c1",
    "VALUE UNIT": "µM",
    "READOUT NUMBER": 0.163
  }
]

# compound COCc1cccc2[nH]c(-c3n[nH]c4ncc(-c5ccncc5)cc34)nc12 ; its IC50 = 0.062

# compound COCc1cccc2[nH]c(-c3n[nH]c4ncc(-c5cnccc5C)cc34)nc12 ; its IC50 = 0.0687

# compound c1ccc2c(-c3cnc4[nH]nc(-c5nc6c(CN7CCOCC7)cccc6[nH]5)c4c3)cncc2c1 ; its IC50 = 0.0647

# compound c1ccc2c(-c3cnc4[nH]nc(-c5nc6c(CN7CCCC7)cccc6[nH]5)c4c3)cncc2c1 ; its IC50 = 0.0648

# compound COCc1cccc2[nH]c(-c3n[nH]c4ncc(-c5ccc(N6CCNCC6)nc5)cc34)nc12 ; its IC50 = 0.077

# compound COc1ccc2[nH]c(-c3n[nH]c4ncc(-c5cncc(CNC(C)C)c5)cc34)nc2c1 ; its IC50 = 0.106

----------
UniProt O08775 IC50 data
Sequence (O08775 786-1343): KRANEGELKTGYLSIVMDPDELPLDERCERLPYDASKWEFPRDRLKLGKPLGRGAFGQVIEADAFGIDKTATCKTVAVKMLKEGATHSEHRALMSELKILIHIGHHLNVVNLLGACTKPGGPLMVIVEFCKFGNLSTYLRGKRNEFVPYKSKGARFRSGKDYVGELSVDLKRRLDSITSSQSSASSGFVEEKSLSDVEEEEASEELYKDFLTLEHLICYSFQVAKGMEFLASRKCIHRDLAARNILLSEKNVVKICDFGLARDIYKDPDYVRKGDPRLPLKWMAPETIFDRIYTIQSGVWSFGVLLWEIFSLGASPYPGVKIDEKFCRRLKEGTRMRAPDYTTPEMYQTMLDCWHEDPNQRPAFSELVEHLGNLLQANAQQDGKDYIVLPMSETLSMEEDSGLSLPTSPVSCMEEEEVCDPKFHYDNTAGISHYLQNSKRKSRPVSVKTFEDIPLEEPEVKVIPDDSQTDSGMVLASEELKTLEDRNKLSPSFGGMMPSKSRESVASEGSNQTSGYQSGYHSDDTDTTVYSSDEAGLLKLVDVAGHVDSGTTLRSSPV

[
  {
    "COMPOUND": "NC1CCC(NC(=O)c2cccc3[nH]c(-c4n[nH]c5ncc(-c6cncc7ccccc67)cc45)nc23)CC1 (stereo not shown)",
    "TEST SYSTEM": "UniProt O08775",
    "RESULT": "> 0.1 µM"
  }
]

Bench note, UniProt O08775: entry CC(C)NCc1cccc2[nH]c(-c3n[nH]c4ncc(-c5cncc6ccccc56)cc34)nc12 , its IC50 = ~1 µM

Bench note, UniProt O08775: entry CCN(CC)C(=O)c1cccc2[nH]c(-c3n[nH]c4ncc(-c5cncc6ccccc56)cc34)nc12 , its IC50 = ~10 µM

Bench note, UniProt O08775: entry O=C(O)c1cccc2[nH]c(-c3n[nH]c4ncc(-c5cncc6ccccc56)cc34)nc12 , its IC50 = > 10 µM

Bench note, UniProt O08775: entry COCc1cccc2[nH]c(-c3n[nH]c4ncc(-c5ccc(N6CCNCC6)nc5)cc34)nc12 , its IC50 = ~1 µM

Bench note, UniProt O08775: entry CCCCNCc1cncc(-c2cnc3[nH]nc(-c4nc5cc(OC)ccc5[nH]4)c3c2)c1 , its IC50 = 0.0179 µM

Bench note, UniProt O08775: entry COCc1cccc2[nH]c(-c3n[nH]c4ncc(-c5ccc(N6CCN(C(=O)OC(C)(C)C)CC6)nc5)cc34)nc12 , its IC50 = > 10 µM

Bench note, UniProt O08775: entry CCCNCc1cncc(-c2cnc3[nH]nc(-c4nc5cc(N6CCN(C)CC6)ccc5[nH]4)c3c2)c1 , its IC50 = 0.16 µM

Bench note, UniProt O08775: entry c1ccc2c(-c3cnc4[nH]nc(-c5nc6c(Cn7ccnc7)cccc6[nH]5)c4c3)cncc2c1 , its IC50 = ~10 µM

Bench note, UniProt O08775: entry c1ccc2c(-c3cnc4[nH]nc(-c5nc6c(COCCN7CCOCC7)cccc6[nH]5)c4c3)cncc2c1 , its IC50 = ~1 µM
